Where do these numbers come from? They come from patent US20040037843A1.

Please respond with reported IC50 for every item in the list.
Molecular target: HLA-A*0201 (human)
Details: remark: other sources report otherwise
Report only the number, with the unit µM understood.

Query: Which measured IC50 value corresponds to DLMLLRLSEPV [peptide 63.0109 (HuK2.120.V11)] ?
Result: 0.05

Query: Then what about the binder LMLLRLSEPA [peptide 63.0014 (HuK2.121)] ?
Result: 0.2

Query: Then what about the binder SLHLLSNDMCV [peptide 1418.66 (HuK2.175.V11)] ?
Result: 0.0086

Query: Then what about the binder SLQCVSLHL [peptide 60.0191 (HuK2.170, 9-mer)] ?
Result: 0.5

Query: Then what about the binder SLQCVSLHLL [peptide 1419.66 (HuK2.170, 10-mer)] ?
Result: 0.263

Query: Then what about the binder ALSVGCTGV [peptide 1418.15 (HuK2.9.V9)] ?
Result: 0.024

Query: Then what about the binder SLQCVSLHV [peptide 1418.19 (HuK2.170.V9)] ?
Result: 0.056

Query: Then what about the binder SVGCTGAVPV [peptide 1418.35 (HuK2.11.V10)] ?
Result: 0.104
